pKd reference
Target Or Test System: TLR4 (Homo sapiens, UniProt O00206)
Sequence (O00206 24-631 limits assumed): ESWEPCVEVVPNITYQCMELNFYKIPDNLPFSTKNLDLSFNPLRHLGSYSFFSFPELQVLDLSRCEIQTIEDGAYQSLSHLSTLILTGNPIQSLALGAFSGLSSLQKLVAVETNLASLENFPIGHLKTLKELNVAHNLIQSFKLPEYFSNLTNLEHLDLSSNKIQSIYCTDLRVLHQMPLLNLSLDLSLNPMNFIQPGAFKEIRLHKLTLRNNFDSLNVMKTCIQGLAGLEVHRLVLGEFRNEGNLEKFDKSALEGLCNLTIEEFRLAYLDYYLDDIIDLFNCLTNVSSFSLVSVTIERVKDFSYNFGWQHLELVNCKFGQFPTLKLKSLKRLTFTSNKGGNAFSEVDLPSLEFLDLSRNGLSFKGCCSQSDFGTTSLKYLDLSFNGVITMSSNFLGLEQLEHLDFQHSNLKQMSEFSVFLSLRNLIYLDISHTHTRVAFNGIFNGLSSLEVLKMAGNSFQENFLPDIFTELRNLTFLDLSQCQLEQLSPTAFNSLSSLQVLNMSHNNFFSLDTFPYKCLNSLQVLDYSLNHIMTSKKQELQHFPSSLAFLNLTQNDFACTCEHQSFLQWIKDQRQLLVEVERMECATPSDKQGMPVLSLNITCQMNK
Assay Info: Surface plasmon resonance spectroscopy (Biacore T200), TLR4 immobilized on NTA sensor chip via his-tag
Measurement Parameters: HBS-P+ with 50 μM EDTA, 20° C., 10 μL/min, 5 concentrations
pKd: −log10 of the molar value.
Quantity: pKd

[[record]]
compound = "Cc1ccc(C(=O)N2CCOCC2)c(O)c1 [T5635346]"
quantity = "pKd"
recorded_value = 6.62

[[record]]
compound = "CC(C)CN1CCOC(CNC(=O)Nc2ccc3c(c2)OCO3)C1 (centres unmarked) [T5874283]"
quantity = "pKd"
recorded_value = 6.99

